# assay.system: human CXCR4 (human, UniProt P61073 1-352); further: test concentration or dose not given here
# Sequence (P61073 whole entry): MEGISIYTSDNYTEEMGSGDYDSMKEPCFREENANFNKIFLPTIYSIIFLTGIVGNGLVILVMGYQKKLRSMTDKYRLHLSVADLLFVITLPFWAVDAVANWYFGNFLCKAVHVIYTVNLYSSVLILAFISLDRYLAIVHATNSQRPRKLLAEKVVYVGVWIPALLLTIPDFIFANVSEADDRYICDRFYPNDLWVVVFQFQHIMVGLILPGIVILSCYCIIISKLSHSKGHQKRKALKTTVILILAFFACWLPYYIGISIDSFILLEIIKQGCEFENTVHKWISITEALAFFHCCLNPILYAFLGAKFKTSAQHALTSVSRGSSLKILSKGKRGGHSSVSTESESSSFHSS
# assay.notes: cell-based or functional assay
Items are presented alongside their recorded % Inhibition 1 hr (Jurkat chemotaxis).
Answer format: numeric, % implied, no suffix.

Below, each entry is followed by its recorded % Inhibition 1 hr (Jurkat chemotaxis) result.
Request: Could you share which % Inhibition 1 hr (Jurkat chemotaxis) value was measured for 4C1 (antibody, V domains shown, Fully human monoclonal antibody from XenoMouse hybridoma (strains XMG2 IgG2 or XMG4 IgG4, kappa/lambda); Tested as hybridoma supernatant or purified antibody; also called mAb 4C1; Mab4C1) VH: QVQLVESGGGVVQPGRSLRLSCAASGFTFSSYGMHWVRQAPGKGLEWVAVISYDGSNKYYADSVKGRFTISRDNSKNTLYLQMNSLRAEDTAVYYCTRGGLAARRNYYYSYGMDVWGQGTTVTVSS VL: DIQMTQSPSSLSASVGDRVTITCRASQDIRNDLGWYQQKPGKAPKRLIYAASSLQSGVPSRFSGSGSGTQFTLTISSLQPEDFATYYCLQHNSYPLTFGGGTKVQIK ?
Result: 81.3

Request: Looking for the measured % Inhibition 1 hr (Jurkat chemotaxis) of 6C7 (antibody, V domains shown, Fully human monoclonal antibody from XenoMouse hybridoma; also called antibody 6C7; mAb 6C7) VH: QVQLVESGGGVVQPGRSLRLSCAASGFTFSNYVMHWVRQAPGKGLEWVAVIWYDGSNKYYADSVKGRFTISRDNSKNTLSLQMNSLRAEDTAVYYCERGEGYYGSGSRYRGYYYGMDVWGQGTTVTVSS VL: DIQMTQSPSSLSASVGDRVTITCRASQGIRTDLGWYQQKPGKAPKRLIYAASSLQSGVPSRFSGSGSGTEFTLTISSLQPEDFATYYCLQHNSYPRTFGQGTKVEIK , can you help?
Result: 99.6

Request: So what does the record say about % Inhibition 1 hr (Jurkat chemotaxis) for 5C9 (antibody, V domains shown, Fully human monoclonal antibody from XenoMouse hybridoma (lambda light chain)) VH: QVQLVESGGGVVQPGRSLRLSCAASGFTFSSYGLHWVRQSPGKGLEWVAVISYDGSKKYYADSVKGRFSISRDNSKNTLYLQMNSLRAEDTAVYYCARDRPSRYSSCMDVWGQGTTVTVSS VL: QSALTQPASVSGSPGQSITISCTGTSSDVGSNNFVSWYQQHPGKAPKLMIYEVSKRPSGVSNRFSGSKSGNTASLTISGLQAEDEADYYCCSYAGSNTLVFGGGTKLTVL ?
Result: 74

Request: Name the reported % Inhibition 1 hr (Jurkat chemotaxis) value associated with the binder 2A4 (antibody, V domains shown, Fully human monoclonal antibody from XenoMouse hybridoma; also called mAb 2A4; Mab2A4) VH: QVQLVESGGGVVQPGRSLRLSCAASGFTFSSYGMHWVRQAPGKGLEWVAVISYDGSNKYYADSVKGRFTISRDNSKNTLYLQMNSLRAEDTAVYYCTRGGLAARRNYYYSYGTDVWGQGTTVTVSS VL: DIQMTQSPSSLSASVGDRVTITCRASQDIRNDLGWYQQKPGKAPTRLIYAASSLQSGVPSRFSGSGSGTQFTLTISSLQPEDFATYYCLQHNSYPLTFGGGTKVQIK
Result: 98

# ---- query binder ----
Request: Requested read-out: % Inhibition 1 hr (Jurkat chemotaxis). Entry: 7C8 (antibody, V domains shown, Fully human monoclonal antibody from XenoMouse hybridoma) VH: QVQLVESGGGVVQPGRSLRLSCAASGFTFSSYGMHWVRQAPGKGLEWVAVIWYDGTYKYYADSVRGRFTISRDNSKNTLYLQMNSLRAEDTAVYYCARGPLLRYFDWLSDYWGQGTLVTVSS VL: DIQMTQSPSSLSASVGDRVTITCRASQGIRNDLGWYQQKPGKAPKRLIYAATSLQSGVPSRFSGSGSGTEFTLTISSLQPEDFATYYCLQHNNYPRTFGGGTKVEIK
Result: 48.3
